Origin of the recorded values: patent US20130303535A1

assayedSystem: TTX resistant Na channel of human SNS-expressing cell (SNS) (Homo sapiens, UniProt Q9Y5Y9)
Sequence (Q9Y5Y9 whole entry, looked up): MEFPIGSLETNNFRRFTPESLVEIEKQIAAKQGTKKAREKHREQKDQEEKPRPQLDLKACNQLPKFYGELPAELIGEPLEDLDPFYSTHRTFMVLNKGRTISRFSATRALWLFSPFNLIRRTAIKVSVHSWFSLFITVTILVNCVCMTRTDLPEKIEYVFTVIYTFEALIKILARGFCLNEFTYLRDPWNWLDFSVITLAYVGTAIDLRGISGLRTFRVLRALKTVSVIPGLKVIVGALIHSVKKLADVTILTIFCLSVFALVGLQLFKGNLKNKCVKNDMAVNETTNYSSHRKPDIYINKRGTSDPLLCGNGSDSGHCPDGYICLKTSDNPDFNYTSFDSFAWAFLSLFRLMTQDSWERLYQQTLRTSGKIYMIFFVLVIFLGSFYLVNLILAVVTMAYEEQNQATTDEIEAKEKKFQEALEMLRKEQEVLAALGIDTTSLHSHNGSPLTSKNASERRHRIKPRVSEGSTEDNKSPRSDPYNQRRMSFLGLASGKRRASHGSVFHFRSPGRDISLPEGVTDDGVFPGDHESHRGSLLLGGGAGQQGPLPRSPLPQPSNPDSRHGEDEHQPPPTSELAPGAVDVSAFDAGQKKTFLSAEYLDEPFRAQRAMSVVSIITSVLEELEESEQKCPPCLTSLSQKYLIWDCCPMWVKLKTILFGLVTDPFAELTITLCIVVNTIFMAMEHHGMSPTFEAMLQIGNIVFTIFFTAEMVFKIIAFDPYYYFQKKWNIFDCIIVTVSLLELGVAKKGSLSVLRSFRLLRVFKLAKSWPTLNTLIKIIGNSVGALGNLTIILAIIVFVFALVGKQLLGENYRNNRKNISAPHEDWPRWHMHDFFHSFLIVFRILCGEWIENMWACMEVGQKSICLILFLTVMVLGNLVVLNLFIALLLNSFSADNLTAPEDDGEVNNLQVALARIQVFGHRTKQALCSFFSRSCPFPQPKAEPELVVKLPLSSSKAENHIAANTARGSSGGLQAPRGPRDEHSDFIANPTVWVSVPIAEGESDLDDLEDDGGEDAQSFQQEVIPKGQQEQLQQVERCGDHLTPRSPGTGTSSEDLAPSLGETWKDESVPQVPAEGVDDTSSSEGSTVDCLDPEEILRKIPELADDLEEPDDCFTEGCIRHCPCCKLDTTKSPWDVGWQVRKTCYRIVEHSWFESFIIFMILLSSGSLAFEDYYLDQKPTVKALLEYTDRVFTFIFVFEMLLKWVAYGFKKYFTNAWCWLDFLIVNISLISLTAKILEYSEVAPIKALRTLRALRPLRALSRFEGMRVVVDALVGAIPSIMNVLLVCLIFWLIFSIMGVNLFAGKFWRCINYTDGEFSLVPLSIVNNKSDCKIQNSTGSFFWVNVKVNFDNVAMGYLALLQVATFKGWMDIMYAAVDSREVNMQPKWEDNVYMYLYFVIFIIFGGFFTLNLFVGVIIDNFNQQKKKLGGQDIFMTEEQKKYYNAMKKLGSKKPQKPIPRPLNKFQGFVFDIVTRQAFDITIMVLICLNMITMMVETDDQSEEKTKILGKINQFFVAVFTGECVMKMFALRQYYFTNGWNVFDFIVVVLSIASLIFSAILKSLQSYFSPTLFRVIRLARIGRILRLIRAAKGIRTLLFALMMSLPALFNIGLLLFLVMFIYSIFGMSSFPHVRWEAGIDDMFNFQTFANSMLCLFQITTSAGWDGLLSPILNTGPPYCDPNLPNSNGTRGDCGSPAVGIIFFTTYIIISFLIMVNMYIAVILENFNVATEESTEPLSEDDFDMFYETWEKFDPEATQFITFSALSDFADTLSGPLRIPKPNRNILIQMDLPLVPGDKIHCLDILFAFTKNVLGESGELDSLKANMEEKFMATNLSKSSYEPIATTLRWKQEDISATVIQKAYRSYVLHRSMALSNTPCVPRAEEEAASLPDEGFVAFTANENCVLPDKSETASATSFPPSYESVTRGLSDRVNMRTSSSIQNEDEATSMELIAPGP
measurementNotes: cell-based
conditionLabel: CHO-K1, compound concentration 12.5 μM; read-out: SNS inhibitory rate (%)
Readings of inhibition at 12.5 µM for the listed molecules
measurementName: inhibition at 12.5 µM (%)

molecule="CCOCCn1c(CN[C@@H](C)C(N)=O)nc2ccc(-c3ccc(F)cc3C)cc21 [Example 157]" endpointunit=% resultnumber=89.9
molecule="C[C@H](NCc1nc2ccc(Oc3ccc(F)cc3F)cc2n1CC(C)(C)O)C(N)=O [Example 105]" endpointunit=% resultnumber=75.1
molecule="CCOCCn1c(CN[C@@H](C)C(N)=O)nc2cc(C(F)(F)F)c(-c3ccc(F)cc3)cc21 [Example 115]" endpointunit=% resultnumber=3.5
molecule="CCOCCn1c(CN[C@@H](C)C(N)=O)nc2ccc(Oc3ccccc3)cc21 [Example 1]" endpointunit=% resultnumber=45.8
molecule="CCOCCn1c(CN[C@@H](C)C(N)=O)nc2cc(Cl)c(-c3ccccc3)cc21 [Example 177]" endpointunit=% resultnumber=22.5
molecule="CCOCCn1c(CNC(C)(C)C(N)=O)nc2ccc(Oc3ccccc3Cl)cc21 [Example 32]" endpointunit=% resultnumber=91.2
molecule="CCOCCn1c(CN[C@@H](C)C(N)=O)nc2ccc(Oc3ccccc3F)cc21 [Example 52]" endpointunit=% resultnumber=89.7
molecule="CCn1c(CNC(C)(C)C(N)=O)nc2cc(F)c(-c3ccc(F)cc3)cc21 [Example 187]" endpointunit=% resultnumber=53.3
